# system: Cannabinoid receptor 1 (Homo sapiens); further: in other assays of this panel Not Active means under 50% inhibition at 10 µM
# Sequence (P21554 whole entry): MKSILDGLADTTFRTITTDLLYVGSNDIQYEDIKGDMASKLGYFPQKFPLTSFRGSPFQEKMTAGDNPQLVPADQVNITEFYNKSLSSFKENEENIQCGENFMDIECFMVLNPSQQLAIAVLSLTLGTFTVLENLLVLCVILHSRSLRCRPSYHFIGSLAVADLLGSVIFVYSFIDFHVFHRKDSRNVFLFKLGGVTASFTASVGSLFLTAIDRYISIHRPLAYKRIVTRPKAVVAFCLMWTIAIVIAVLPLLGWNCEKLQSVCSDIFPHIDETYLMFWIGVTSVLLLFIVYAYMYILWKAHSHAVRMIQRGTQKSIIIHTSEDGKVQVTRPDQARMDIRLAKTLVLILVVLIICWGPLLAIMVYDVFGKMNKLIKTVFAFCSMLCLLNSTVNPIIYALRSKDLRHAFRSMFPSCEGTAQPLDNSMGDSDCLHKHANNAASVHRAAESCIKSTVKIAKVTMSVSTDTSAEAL
# Format: cell membranes, Chem-1, Membrane
# conditions: read-out: IC50
assay-metric: IC50
Quote the value and follow it with the unit of measurement.

So for Clc1ccc(COC(Cn2ccnc2)c2ccc(Cl)cc2Cl)c(Cl)c1 (stereo unspecified) , the logged IC50 turned out to be 21 µM

----------
# method-description: DRUGMATRIX: GABAA, Chloride Channel, TBOB radioligand binding (ligand: [3H] TBOB)
# Format: cell membranes, Rattus norvegicus, Wistar, Cerebral cortex, Membrane
# conditions: Not Active = under 50% inhibition at 10 µM
assay-metric: Ki

Consider the worked cases shown below.
molecule | Ki
CCCNC(C)C(=O)Nc1ccccc1C (stereo unspecified) [PRILOCAINE] | Not Active
C[C@]12C=CC(=O)C=C1CC[C@H]1[C@@H]3C[C@@H](O)[C@](O)(C(=O)CO)[C@@]3(C)C[C@H](O)[C@@]12F [TRIAMCINOLONE] | Not Active
COc1cc(OC)c(C(=O)CCCN2CCCC2)c(OC)c1 [BUFLOMEDIL] | Not Active
NCCCNCCSP(=O)(O)O [AMIFOSTINE] | Not Active
CC(=N)S [THIOACETAMIDE] | Not Active

Please go through the list and note Ki for each molecule.
1. O=C(O)c1ccccc1O [SALICYLIC ACID]
2. CC(C)C[C@H]1C(=O)N2CCC[C@H]2[C@]2(O)O[C@](NC(=O)[C@@H]3C=C4c5cccc6[nH]cc(c56)C[C@H]4N(C)C3)(C(C)C)C(=O)N12 [ERGOCRYPTINE]
3. COc1ccnc(C[S+]([O-])c2nc3ccc(OC(F)F)cc3[nH]2)c1OC (stereo unspecified) [PANTOPRAZOLE]
4. O=C(O)c1cc(-c2ccc(F)cc2F)ccc1O [DIFLUNISAL]
5. CC1=NN(c2ccccc2)C(=O)C1 [EDARAVONE]
6. O=C(O)CCCCC1CCSS1 (stereo not drawn) [LIPOIC ACID, ALPHA]
7. CN1CCC(=C2c3ccccc3CC(=O)c3sccc32)CC1 [KETOTIFEN]

**A:**
Not Active
Not Active
Not Active
Not Active
Not Active
Not Active
Not Active

Please go through the list and note Ki for each molecule.
1. CNC1=Nc2ccc(Cl)cc2C(c2ccccc2)=[N+]([O-])C1 [CHLORDIAZEPOXIDE]
2. O=C(c1ccccc1F)N1CCC(Cc2ccccc2)CC1
3. O=C(O)CC(O)(CC(=O)O)C(=O)O [CITRIC ACID]

**A:**
1: Not Active; 2: Not Active; 3: Not Active

Please go through the list and note Ki for each molecule.
1. C[C@@H]1O[C@@H](O[C@H]2C[C@@H](O)[C@]3(CO)[C@H]4[C@H](O)C[C@]5(C)[C@@H](C6=CC(=O)OC6)CC[C@]5(O)[C@@H]4CC[C@]3(O)C2)[C@H](O)[C@H](O)[C@H]1O [OUABAIN]
2. CN1C[C@@H]2C[C@H]1CN2c1cc2c(cc1F)c(=O)c(C(=O)O)cn2C1CC1 [DANOFLOXACIN]
3. C[C@]12CC[C@@H]3c4ccc(O)cc4CC[C@H]3[C@@H]1C[C@@H](O)[C@@H]2O [ESTRIOL]
4. COC(=O)[C@H]1[C@H]2C[C@@H]3c4[nH]c5cc(OC)ccc5c4CCN3C[C@H]2C[C@@H](OC(=O)c2cc(OC)c(OC)c(OC)c2)[C@@H]1OC [RESERPINE]
5. CN1CCN(CCCN2c3ccccc3Sc3ccc(C(F)(F)F)cc32)CC1 [TRIFLUOPERAZINE]
6. NC(=O)N1c2ccccc2CC(=O)c2ccccc21 [OXCARBAZEPINE]
7. CC(C)NCC(O)c1ccccc1Cl (stereo unspecified) [CLORPRENALINE]
8. CCN(CC)CCNC(=O)c1ccc(N)cc1 [PROCAINAMIDE]

**A:**
Not Active
Not Active
Not Active
Not Active
Not Active
Not Active
Not Active
Not Active
